# study system: KSBcl-2 (Kaposi's sarcoma-associated herpesvirus Bcl-2 homolog), c-myc-tagged (Kaposi's sarcoma-associated herpesvirus …, UniProt P90504 1-175)
# protocol notes: fluorescence polarisation
pKd: −log10 of the molar value. 5/6‑FAM = 5/6-fluorescein amidite
Assign condition met to entries whose pKd meets or exceeds 8; assign condition not met to the rest.

See these solved cases before continuing.
| binder | cat |
| --- | --- |
| {5/6‑FAM}-RPQIWIHQGLQRLGDGLNAYKAR-NH2 [KL6-7_Y4eK] | condition met |
| {5/6‑FAM}-RPQIWIHQGLQRLGDGLNAYYAR-NH2 [KL6-7] | condition met |
| {5/6‑FAM}-RPIIWIGQEISRVGDRENAYYAR-NH2 [BL6-22] | condition not met |
| {5/6‑FAM}-RPQIWIHQGLQRLGAGLNAYYAR-NH2 [KL6-7_D3fA] | condition not met |

We now examine a further binder.
Query string: Quick check: does {5/6‑FAM}-RPIIWIGQEISRVGDRENAYKAR-NH2 [BL6-22_Y4eK] have pKd greater than or equal to 8?
Result string: condition not met
